# METHOD_DESCRIPTION: Fenebrutinib concentration in CSF and plasma after 12 weeks of continuous administration (exploratory endpoint)
# Assay type: in vivo, human
# TEST_CONTEXT: human, plasma, po, 200 mg, n = 4 patients; after 12 weeks of continuous administration; 200 mg BID oral; read-out: Total plasma concentration, Median (min, max)
# Source text: Exploratory Endpoints: Exploratory endpoints included the total number of new T1-hypointense lesions on MRI at weeks 4, 8, and 12; the fenebrutinib concentration in CSF collected at baseline and at or after Week 12; and plasma pharmacokinetics. Results: Exploratory Endpoint-Evaluation of CSF: Cerebrospinal samples (CSF) were taken from 11 patients following 12 weeks of continuous fenebrutinib administration. A blood plasma sample was taken at the same time for 4 of the 11 patients. […]
QUANTITY_MEASURED: concentration at 2016 h (ng/mL)
State the answer as a number, implicitly in ng/mL.

Prompt line: Bench note: what concentration at 2016 h did "C[C@H]1CN(C2COC2)CCN1c1ccc(Nc2cc(-c3ccnc(N4CCn5c(cc6c5CC(C)(C)C6)C4=O)c3CO)cn(C)c2=O)nc1" show?
Response line: 691
